These measurements were taken from ChEMBL document CHEMBL4706708.

Overview of reported growth at 1 µM across a group of molecules:
- Tested on: MDA-MB-231
- EXPERIMENT_SUMMARY: Antiproliferative activity against human MDA-MB-231 cells assessed as cell growth at 1 uM measured after 3 days by [3H]-thymidine incorporation assay relative to control
- Assay type: functional
- EXPERIMENTAL_CONTEXT: MDA-MB-231, 72 h, time 3 day, read-out: Activity
MEASURED_PROPERTY: growth at 1 µM (%)

- Cc1nc2sc(C(=O)Nc3ccc4c(c3)OCCO4)c(N)c2cc1C(C)O (stereo not given): 105
- Cc1nc2sc(C(=O)Nc3cncc4ccccc34)c(N)c2cc1C(C)O (stereo not given): 106
- COc1cccc(NC(=O)c2sc3nc4c(cc3c2N)CN(Cc2ccccc2)CC4)c1: 90.7
- Nc1c(C(=O)Nc2cccc3ncccc23)sc2nc3c(cc12)CN(Cc1ccccc1)CC3: 91.3
- Cc1nc2sc(C(=O)Nc3cccc4cccnc34)c(N)c2cc1C(C)O (stereo not given): 102
- Nc1c(C(=O)Nc2ccnc3ccccc23)sc2nc3c(cc12)C(=O)CCC3: 107
- CC(=O)c1cc2c(N)c(C(=O)Nc3ccnc4ccccc34)sc2nc1C: 91.6
- Nc1c(C(=O)Nc2cccc3ccncc23)sc2nc3c(cc12)C(=O)CCC3: 115
- COc1ccc(NC(=O)c2sc3nc(C)c(C(C)=O)cc3c2N)cc1: 84.6
- CC(=O)c1cc2c(N)c(C(=O)Nc3cccc4c3OCCO4)sc2nc1C: 104
